I'd be grateful if you could share measured % inhibition apPOL 180' for these entries.
assayed-target: UniProtKB Q8ILY1
Sequence (Q8ILY1 entry or part of it): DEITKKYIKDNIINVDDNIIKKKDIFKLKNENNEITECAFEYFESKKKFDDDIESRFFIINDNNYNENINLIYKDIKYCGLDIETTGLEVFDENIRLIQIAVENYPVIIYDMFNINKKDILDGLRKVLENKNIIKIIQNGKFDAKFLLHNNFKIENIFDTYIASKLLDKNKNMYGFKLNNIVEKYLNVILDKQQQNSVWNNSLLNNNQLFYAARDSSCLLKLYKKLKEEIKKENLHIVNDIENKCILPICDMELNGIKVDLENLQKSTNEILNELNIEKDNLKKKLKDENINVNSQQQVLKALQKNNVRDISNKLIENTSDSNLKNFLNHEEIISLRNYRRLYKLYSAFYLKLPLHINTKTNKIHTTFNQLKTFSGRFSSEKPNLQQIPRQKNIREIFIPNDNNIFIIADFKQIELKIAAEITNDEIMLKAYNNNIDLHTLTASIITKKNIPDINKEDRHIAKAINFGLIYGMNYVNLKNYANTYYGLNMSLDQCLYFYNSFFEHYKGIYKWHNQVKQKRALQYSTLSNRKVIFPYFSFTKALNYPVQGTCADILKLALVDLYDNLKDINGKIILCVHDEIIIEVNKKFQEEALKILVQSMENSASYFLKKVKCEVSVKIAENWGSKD
experiment-notes: Fluorescence-based high-throughput DNA polymerase assay (molecular beacon), primary screen and dose-response;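 also: test concentration in µM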
Type: biochemical
test-conditions: DRC-2; 180'; conc 40
Could you give me the number in %? Just the number is fine.

Prompt line: Query % inhibition apPOL 180' for CCOc1nc2cccc(C(=O)OC(C)OC(=O)OC3CCCCC3)c2n1Cc1ccc(-c2ccccc2-c2nnn[nH]2)cc1 (stereo not shown) [Molecule 94]
Response line: 75

Prompt line: State, in one line, measured % inhibition apPOL 180' of COC(=O)c1sc(-c2ccc(C(C)(C)C)cc2)cc1NC(=O)CCC(=O)O [Molecule 87]
Response line: 72

Prompt line: Give me measured % inhibition apPOL 180', please, for this compound: Cc1ccc(NC(=O)Cn2ccc3c(=O)[nH]ccc32)c(C)c1 [KU0205125]
Response line: 69

Prompt line: Return the recorded % inhibition apPOL 180' value; entry: N#CC(C#N)=C1SCN(c2cccc(Cl)c2)CS1 [Molecule 29, N#CC(=C1SCN(CS1)c1cccc(c1)Cl)C#N]
Response line: 73
